This section presents Ki values reported for Cytochrome P450 2D6 (Homo sapiens, UniProt P10635) in the literature.
Answer format: numeric, µM implied, no suffix.

COc1cc2c(cc1CN[C@H]1CCCN[C@H]1c1ccccc1)C(C)(C(F)(F)F)OC2 (mixture of isomers; 15) = 0.66
C[C@@H](NC(=O)Nc1cccc(-c2nnnn2C)c1)[C@@H](O)CN1CCC[C@@H](Cc2ccc(F)cc2)C1 = 2.6
NCc1ccc(-c2cccnc2)s1 = 84.5

Request: Given the entry O=C(Nc1ccc2ccccc2c1)NC1CCN(C/C2=C/CCCCCC2)CC1 , what Ki was observed with Cytochrome P450 2D6 (Homo sapiens, UniProt P10635)?
Result: 0.6

Request: Given the entry COc1cc(OC)c2c(C)[n+](-c3ccc(C(C)C)cc3)c(C)cc2c1.O=C([O-])C(F)(F)F , what Ki was observed with Cytochrome P450 2D6 (Homo sapiens, UniProt P10635)?
Result: 0.0547

Request: Given the entry CNCc1ccc(-c2cccnc2)o1 , what Ki was observed with Cytochrome P450 2D6 (Homo sapiens, UniProt P10635)?
Result: 45.3

Request: Given the entry COc1ccc(C(C)C(F)(F)F)cc1CN[C@H]1CCCN[C@H]1c1ccccc1 (mixture of isomers) , what Ki was observed with Cytochrome P450 2D6 (Homo sapiens, UniProt P10635)?
Result: 0.84

Request: Given the entry NCc1cc(-c2cccnc2)n[nH]1 , what Ki was observed with Cytochrome P450 2D6 (Homo sapiens, UniProt P10635)?
Result: 29.8

Request: Given the entry c1cncc(-c2ccc(C3SCCS3)o2)c1 , what Ki was observed with Cytochrome P450 2D6 (Homo sapiens, UniProt P10635)?
Result: 38.4

Request: Given the entry CN(C)Cc1ccc(-c2cccnc2)s1 , what Ki was observed with Cytochrome P450 2D6 (Homo sapiens, UniProt P10635)?
Result: 14.4

Request: Given the entry COc1cc(OC)c2c(C)[n+](-c3ccc(C)cc3)c(C)cc2c1.F[B-](F)(F)F , what Ki was observed with Cytochrome P450 2D6 (Homo sapiens, UniProt P10635)?
Result: 0.0281

Request: Given the entry COCO[C@@H](c1ccccc1)[C@@H](Cn1ccnn1)c1ccccc1 (relative stereo) , what Ki was observed with Cytochrome P450 2D6 (Homo sapiens, UniProt P10635)?
Result: 1120

Request: Given the entry COc1cc2c(cc1CN[C@H]1CCCN[C@H]1c1ccccc1)C(C)(C(F)(F)F)CCC2 (mixture of isomers; 21) , what Ki was observed with Cytochrome P450 2D6 (Homo sapiens, UniProt P10635)?
Result: 0.12

Request: Given the entry CC(=O)SCc1ccc(-c2cccnc2)o1 , what Ki was observed with Cytochrome P450 2D6 (Homo sapiens, UniProt P10635)?
Result: 45.4

Request: Given the entry Fc1cnc(N2CCN(Cc3cnc(-c4ccccc4)[nH]3)CC2)nc1 , what Ki was observed with Cytochrome P450 2D6 (Homo sapiens, UniProt P10635)?
Result: 0.55

Request: Given the entry CN(C)Cc1ccc(-c2cccnc2)o1 , what Ki was observed with Cytochrome P450 2D6 (Homo sapiens, UniProt P10635)?
Result: 127

Request: Given the entry COc1cc(OC)c2c(C)[n+](-c3cccc4ccccc34)c(C)cc2c1.[O-][Cl+3]([O-])([O-])[O-] , what Ki was observed with Cytochrome P450 2D6 (Homo sapiens, UniProt P10635)?
Result: 0.45

Request: Given the entry COc1cc2c(cc1CN[C@H]1CCCN[C@H]1c1ccccc1)C(C(F)(F)F)CC2 (mixture of isomers; 11) , what Ki was observed with Cytochrome P450 2D6 (Homo sapiens, UniProt P10635)?
Result: 0.52
